Biological target: aFGF (Homo sapiens)
Sequence (P05230 16-155 limits assumed): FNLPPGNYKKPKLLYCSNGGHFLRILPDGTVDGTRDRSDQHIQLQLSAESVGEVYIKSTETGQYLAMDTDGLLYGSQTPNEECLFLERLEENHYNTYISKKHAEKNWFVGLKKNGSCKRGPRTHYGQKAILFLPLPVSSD
Test: aFGF-induced mitogenesis inhibition test on fibroblasts in culture
Format: cell-based
Design: the aFGF of 139 amino acid residues
Details: aFGF-induced mitogenesis, Balb/c 3T3 fibroblasts; read-out: inhibitory activity IC50
pIC50: −log10 of the molar value.
measured-quantity: pIC50

>  <compound>
Nc1cccc2cc(S(=O)(=O)[O-])ccc12.[Na+] [Compound C-9, sodium 5-amino-2-naphthalenesulfonate]

>  <measured-quantity>
pIC50

>  <number>
3.58

$$$$

###

Tested on: quiescent fibroblasts (Balb/c 3T3)
Assay: toxicity analysis for quiescent fibroblasts (culture in the absence of aFGF)
Format: cell-based
Conditions: within the concentration range tested / in which aFGF mitogenic activity is inhibited
measured-quantity: toxicity for quiescent fibroblasts

>  <compound>
CC(=O)Nc1cccc2ccc(S(=O)(=O)[O-])cc12.[Na+]

>  <measured-quantity>
toxicity for quiescent fibroblasts

>  <result>
innocuous

$$$$
>  <compound>
CC(=O)Nc1cccc2cc(S(=O)(=O)[O-])ccc12.[Na+]

>  <measured-quantity>
toxicity for quiescent fibroblasts

>  <result>
innocuous

$$$$
>  <compound>
Nc1cccc2cc(S(=O)(=O)[O-])ccc12.[Na+] [Compound C-9, sodium 5-amino-2-naphthalenesulfonate]

>  <measured-quantity>
toxicity for quiescent fibroblasts

>  <result>
innocuous

$$$$
>  <compound>
Cc1ccc2ccccc2c1S(=O)(=O)[O-].[Na+] [Compound C-2, sodium 2-methyl-1-naphthalenesulfonate]

>  <measured-quantity>
toxicity for quiescent fibroblasts

>  <result>
certain toxic effect

$$$$
>  <compound>
O=S(=O)([O-])c1cccc2cccnc12.[Na+] [Compound C-24, sodium 8-quinolinesulfonate]

>  <measured-quantity>
toxicity for quiescent fibroblasts

>  <result>
innocuous

$$$$
>  <compound>
O=S(=O)(O)c1ccc2ccccc2c1

>  <measured-quantity>
toxicity for quiescent fibroblasts

>  <result>
toxic

$$$$
>  <compound>
O=S(=O)(O)c1cccc2ccccc12

>  <measured-quantity>
toxicity for quiescent fibroblasts

>  <result>
certain toxic effect

$$$$
>  <compound>
CN(C)c1cccc2c(S(=O)(=O)[O-])cccc12.[Na+]

>  <measured-quantity>
toxicity for quiescent fibroblasts

>  <result>
certain toxic effect

$$$$
>  <compound>
Nc1ccc(S(=O)(=O)[O-])c2ccccc12.[Na+] [Compound C-3, sodium 4-amino-1-naphthalenesulfonate]

>  <measured-quantity>
toxicity for quiescent fibroblasts

>  <result>
not toxic

$$$$
>  <compound>
Nc1cccc2ccc(S(=O)(=O)[O-])cc12.[Na+] [Compound C-14, sodium 8-amino-2-naphthalenesulfonate]

>  <measured-quantity>
toxicity for quiescent fibroblasts

>  <result>
certain toxic effect

$$$$
>  <compound>
O=C(Nc1ccc(S(=O)(=O)[O-])c2ccccc12)c1ccccc1.[Na+]

>  <measured-quantity>
toxicity for quiescent fibroblasts

>  <result>
not toxic

$$$$
>  <compound>
Nc1c(O)cc(S(=O)(=O)[O-])c2ccccc12.[Na+]

>  <measured-quantity>
toxicity for quiescent fibroblasts

>  <result>
certain toxic effect

$$$$
>  <compound>
Nc1ccc(S(=O)(=O)[O-])cc1.[Na+] [Compound C-20, sodium 4-aminobenzenesulfonate]

>  <measured-quantity>
toxicity for quiescent fibroblasts

>  <result>
innocuous

$$$$
>  <compound>
Nc1ccc2cc(S(=O)(=O)[O-])cc(O)c2c1.[Na+]

>  <measured-quantity>
toxicity for quiescent fibroblasts

>  <result>
innocuous

$$$$
>  <compound>
O=C(Nc1cccc2ccc(S(=O)(=O)[O-])cc12)c1ccccc1.[Na+]

>  <measured-quantity>
toxicity for quiescent fibroblasts

>  <result>
innocuous

$$$$
>  <compound>
CC(=O)Nc1ccc(S(=O)(=O)[O-])c2ccccc12.[Na+]

>  <measured-quantity>
toxicity for quiescent fibroblasts

>  <result>
certain toxic effect

$$$$
